- study-system: Fc-fusion protein of human PSMA (hPSMA-Fc) (Homo sapiens)
- Construct: purchased Acro Biosystems PSA-H5264
- Sequence (Q04609 44-750 limits assumed): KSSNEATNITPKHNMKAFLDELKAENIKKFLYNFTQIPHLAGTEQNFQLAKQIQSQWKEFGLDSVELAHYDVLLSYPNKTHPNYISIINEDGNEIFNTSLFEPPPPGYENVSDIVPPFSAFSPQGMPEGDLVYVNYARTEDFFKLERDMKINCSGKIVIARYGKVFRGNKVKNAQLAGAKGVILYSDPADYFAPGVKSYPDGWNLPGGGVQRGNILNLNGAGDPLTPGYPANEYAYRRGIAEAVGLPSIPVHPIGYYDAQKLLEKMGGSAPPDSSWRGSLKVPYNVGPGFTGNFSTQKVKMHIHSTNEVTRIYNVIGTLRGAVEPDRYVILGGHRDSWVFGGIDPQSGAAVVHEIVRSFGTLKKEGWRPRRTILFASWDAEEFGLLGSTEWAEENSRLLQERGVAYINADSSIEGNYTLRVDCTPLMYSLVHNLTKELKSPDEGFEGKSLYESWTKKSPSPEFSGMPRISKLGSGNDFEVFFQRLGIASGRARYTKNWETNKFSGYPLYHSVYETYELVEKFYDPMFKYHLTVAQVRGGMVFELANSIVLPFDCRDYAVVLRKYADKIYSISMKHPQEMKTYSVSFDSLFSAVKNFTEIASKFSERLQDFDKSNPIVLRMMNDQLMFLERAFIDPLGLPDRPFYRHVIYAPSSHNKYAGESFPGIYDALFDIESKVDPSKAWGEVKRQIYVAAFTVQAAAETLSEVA
- experiment: Surface plasmon resonance assay (Biacore T200, single cycle kinetic)
- Assay type: binding
- details: pKD category for PSMA SPR activity assay, hPSMA-Fc, 25° C.; read-out: pKD CAT (converted)
Numbered stars: 1 amine (or outer) side, 2 acyl side, 3 side chain; on linkers, the order of the positions; unused ones are H or OH. Bridge positions count the residues as written; N and C are the ends. Square brackets hold non-standard residues; d marks the D form. Peptide text beside a SMILES is read from it. * marks the point of attachment. DOTA = O=C(O)CN1CCN(CC(=O)O)CCN(CC(=O)*)CCN(CC(=O)O)CC1; Phe(4-Cl) = N[C@@H](Cc1ccc(Cl)cc1)C(=O)O; 4Pal = N[C@@H](Cc1ccncc1)C(=O)O; X1 = O=C(CC1CCN([*:1])CC1)[*:2]; Lys(Me) = CNCCCC[C@H](N)C(=O)O; Tle = CC(C)(C)[C@H](N)C(=O)O; X15 = O=C1NC(=O)C(CC(=O)*)N1; Aib = CC(C)(N)C(=O)O
Catalogue of Kd values

Solved entries (count: 2):
| compound | study-system | Kd |
| --- | --- | --- |
| C[C@@H](O)[C@H](NC(=O)[C@@H](NC(=O)[C@@H]1CSSC[C@H](NC(=O)[C@H](Cc2ccccc2)NC(=O)C(C)(C)NC(=O)CC2NC(=O)NC2=O)C(=O)N[C@@H](CCCCN)C(=O)N[C@@H](CCCNC(=N)N)C(=O)NC(C)(C)C(=O)N[C@@H](CC(N)=O)C(=O)N1)C(C)(C)C)C(N)=O (stereo partly drawn) [PSM-0518] (X15-[Aib]FCKR[Aib]NC[Tle]T-NH2; disulfide 3-8) | Fc-fusion protein of human PSMA (hPSMA-Fc) (Homo sapiens) | < 12.6 nM |
| C[C@@H](O)[C@H](NC(=O)[C@@H](NC(=O)[C@@H]1CSSC[C@H](NC(=O)[C@H](Cc2ccncc2)NC(=O)C(C)(C)NC(=O)[C@@H](NC(=O)CC2CCN(C(=O)CN3CCN(CC(=O)O)CCN(CC(=O)O)CCN(CC(=O)O)CC3)CC2)[C@@H](C)O)C(=O)N[C@@H](CCCCN)C(=O)N[C@@H](CCCNC(=N)N)C(=O)NC(C)(C)C(=O)N[C@@H](CC(N)=O)C(=O)N1)C(C)(C)C)C(N)=O [PSM-0454] ({DOTA}-[X1]T[Aib][4Pal]CKR[Aib]NC[Tle]T-NH2; disulfide 5-10) | Fc-fusion protein of human PSMA (hPSMA-Fc) (Homo sapiens) | 126 to 501 nM |

Alright, here's another compound for you.
*Q* Please indicate Kd recorded for CNCCCC[C@@H]1NC(=O)[C@@H](NC(=O)[C@H](Cc2ccc(Cl)cc2)NC(=O)C(C)(C)NC(=O)[C@@H](NC(=O)CC2CCN(C(=O)CN3CCN(CC(=O)O)CCN(CC(=O)O)CCN(CC(=O)O)CC3)CC2)[C@@H](C)O)CSSC[C@@H](C(=O)N[C@H](C(=O)N[C@H](C(N)=O)[C@@H](C)O)C(C)(C)C)NC(=O)[C@H](CC(N)=O)NC(=O)C(C)(C)NC(=O)[C@H](CCCNC(=N)N)NC1=O [PSM-0410] ({DOTA}-[X1]T[Aib][Phe(4-Cl)]C[Lys(Me)]R[Aib]NC[Tle]T-NH2; disulfide 5-10)
*A* < 12.6 nM

====

The reader will find reported Kd values listed item by item below.
- study-system: Fc-fusion protein of human PSMA (hPSMA-Fc) (Homo sapiens)
- Construct: purchased Acro Biosystems PSA-H5264
- experiment: Surface plasmon resonance assay (Biacore T200, single cycle kinetic)
- Type: binding
- details: pKD category for PSMA SPR activity assay, hPSMA-Fc, 25° C.; read-out: pKD CAT (converted)
Numbered stars: 1 amine (or outer) side, 2 acyl side, 3 side chain; on linkers, the order of the positions; unused ones are H or OH. Bridge positions count the residues as written; N and C are the ends. Square brackets hold non-standard residues; d marks the D form. Peptide text beside a SMILES is read from it. * marks the point of attachment. DOTA = O=C(O)CN1CCN(CC(=O)O)CCN(CC(=O)*)CCN(CC(=O)O)CC1; Phe(3-CF3) = N[C@@H](Cc1cccc(C(F)(F)F)c1)C(=O)O; Arg(Me) = CNC(=N)NCCC[C@H](N)C(=O)O; 2Pal = N[C@@H](Cc1ccccn1)C(=O)O; X1 = O=C(CC1CCN([*:1])CC1)[*:2]; Lys(Me) = CNCCCC[C@H](N)C(=O)O; Tle = CC(C)(C)[C@H](N)C(=O)O; Nle = CCCC[C@H](N)C(=O)O; Aib = CC(C)(N)C(=O)O

Some compounds with recorded Kd:
| compound | measurement |
| --- | --- |
| CNCCCC[C@@H]1NC(=O)[C@@H](NC(=O)[C@H](Cc2cccc(C(F)(F)F)c2)NC(=O)C(C)(C)NC(=O)[C@@H](NC(=O)CC2CCN(C(=O)CN3CCN(CC(=O)O)CCN(CC(=O)O)CCN(CC(=O)O)CC3)CC2)[C@@H](C)O)CSSC[C@@H](C(=O)N[C@H](C(N)=O)C(C)(C)C)NC(=O)[C@H](CC(N)=O)NC(=O)C(C)(C)NC(=O)[C@H](CCCNC(=N)NC)NC1=O [PSM-0396] ({DOTA}-[X1]T[Aib][Phe(3-CF3)]C[Lys(Me)][Arg(Me)][Aib]NC[Tle]-NH2; disulfide 5-10) | < 12.6 nM |
| CCCC[C@H](NC(=O)[C@@H]1CSSC[C@H](NC(=O)[C@H](Cc2ccccc2)NC(=O)[C@H](C)NC(=O)[C@H](CO)NC(C)=O)C(=O)N[C@@H](CCCCN)C(=O)N[C@@H](CCCNC(=N)N)C(=O)N[C@@H](C)C(=O)N[C@@H](CC(N)=O)C(=O)N1)C(=O)N[C@H](C(=O)N[C@@H](CC(=O)O)C(N)=O)[C@@H](C)O [PSM-0469] (Ac-SAFCKRANC[Nle]TD-NH2; disulfide 4-9) | 12.6 to 126 nM |

Now, please, on to the next compound.
*Q* Determine from records and report Kd for CNCCCC[C@@H]1NC(=O)[C@@H](NC(=O)[C@H](Cc2ccccn2)NC(=O)C(C)(C)NC(=O)[C@@H](NC(=O)CC2CCN(C(=O)CN3CCN(CC(=O)O)CCN(CC(=O)O)CCN(CC(=O)O)CC3)CC2)[C@@H](C)O)CSSC[C@@H](C(=O)N[C@H](C(N)=O)C(C)(C)C)NC(=O)[C@H](CC(N)=O)NC(=O)C(C)(C)NC(=O)[C@H](CCCNC(=N)NC)NC1=O [PSM-0409] ({DOTA}-[X1]T[Aib][2Pal]C[Lys(Me)][Arg(Me)][Aib]NC[Tle]-NH2; disulfide 5-10)
*A* 126 to 501 nM

====

- study-system: PSMA-expressing C4-2 cells (Homo sapiens)
- Construct: PSMA-expressing C4-2 cells (ATCC, Cat. No. CRL-3314) were cultured in RPMI-1640; host or cells: C4-2 cells
- Sequence (Q04609 whole entry): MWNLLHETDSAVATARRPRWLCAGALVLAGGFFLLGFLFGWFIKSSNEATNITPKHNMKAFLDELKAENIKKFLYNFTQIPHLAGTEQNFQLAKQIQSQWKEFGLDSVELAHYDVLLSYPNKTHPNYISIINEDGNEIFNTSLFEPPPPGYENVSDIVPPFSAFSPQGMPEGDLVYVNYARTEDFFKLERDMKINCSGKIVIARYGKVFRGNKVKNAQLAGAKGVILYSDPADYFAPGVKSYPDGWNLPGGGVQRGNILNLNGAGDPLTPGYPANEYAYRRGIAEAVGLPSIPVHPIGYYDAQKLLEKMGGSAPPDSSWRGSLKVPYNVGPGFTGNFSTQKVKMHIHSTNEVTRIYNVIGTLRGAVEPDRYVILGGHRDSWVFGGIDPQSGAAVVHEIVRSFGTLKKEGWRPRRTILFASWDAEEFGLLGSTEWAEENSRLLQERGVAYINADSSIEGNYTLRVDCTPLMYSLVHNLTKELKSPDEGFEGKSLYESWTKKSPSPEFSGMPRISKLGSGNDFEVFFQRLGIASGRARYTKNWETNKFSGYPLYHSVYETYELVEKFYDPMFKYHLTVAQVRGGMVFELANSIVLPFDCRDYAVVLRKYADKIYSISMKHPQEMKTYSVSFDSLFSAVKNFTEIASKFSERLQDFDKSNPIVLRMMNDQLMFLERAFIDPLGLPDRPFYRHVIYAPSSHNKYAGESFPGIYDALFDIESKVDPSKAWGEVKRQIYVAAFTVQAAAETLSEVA
- experiment: FACS binding assay (competition with 50 nM PSM-0183)
- details: pIC50 category of FACS binding, C4-2 cells; read-out: pIC50 [C4-2] CAT (converted)
Numbered stars: 1 amine (or outer) side, 2 acyl side, 3 side chain; on linkers, the order of the positions; unused ones are H or OH. Bridge positions count the residues as written; N and C are the ends. Square brackets hold non-standard residues; d marks the D form. Side chains are listed from the residue outwards. Peptide text beside a SMILES is read from it. * marks the point of attachment. DOTA = O=C(O)CN1CCN(CC(=O)O)CCN(CC(=O)*)CCN(CC(=O)O)CC1; Phe(3-Cl) = N[C@@H](Cc1cccc(Cl)c1)C(=O)O; Phe(4-Cl) = N[C@@H](Cc1ccc(Cl)cc1)C(=O)O; Ethylenediamine = C(CN[*:2])N[*:1]; X1 = O=C(CC1CCN([*:1])CC1)[*:2]; Cit = NC(=O)NCCC[C@H](N)C(=O)O; Lys(Me) = CNCCCC[C@H](N)C(=O)O; Tle = CC(C)(C)[C@H](N)C(=O)O; 4Amb = NCc1ccc(C(=O)O)cc1; AEEA = NCCOCCOCC(=O)O; Aib = CC(C)(N)C(=O)O
The entries below are paired with their reported IC50.

| compound | IC50 |
| --- | --- |
| CC(=O)N[C@H](C(=O)NC(C)(C)C(=O)N[C@@H](Cc1ccccc1)C(=O)N[C@H]1CSSC[C@@H](C(=O)N[C@H](C(=O)N[C@H](C(N)=O)[C@@H](C)O)C(C)(C)C)NC(=O)[C@H](CC(N)=O)NC(=O)[C@H](CCCCNC(=O)COCCOCCNC(=O)CN2CCN(CC(=O)O)CCN(CC(=O)O)CCN(CC(=O)O)CC2)NC(=O)[C@H](CCCNC(=N)N)NC(=O)[C@H](CCCCN)NC1=O)[C@@H](C)O [PSM-0401] (Ac-T[Aib]FCKRK([AEEA-DOTA])NC[Tle]T-NH2; disulfide 4-9) | < 200 nM |

*Q* Read the entry CC(=O)N[C@H](C(=O)NC(C)(C)C(=O)N[C@@H](Cc1ccccc1)C(=O)N[C@H]1CSSC[C@@H](C(=O)N[C@H](C(=O)N[C@H](C(N)=O)[C@@H](C)O)C(C)(C)C)NC(=O)[C@H](CC(N)=O)NC(=O)[C@H](CCCCNC(=O)c2ccc(CNC(=O)CN3CCN(CC(=O)O)CCN(CC(=O)O)CCN(CC(=O)O)CC3)cc2)NC(=O)[C@H](CCCNC(=N)N)NC(=O)[C@H](CCCCN)NC1=O)[C@@H](C)O [PSM-0419] (Ac-T[Aib]FCKRK([4Amb-DOTA])NC[Tle]T-NH2; disulfide 4-9) and write its reported IC50.
*A* < 200 nM

*Q* Find the measured IC50 of CNCCCC[C@@H]1NC(=O)[C@@H](NC(=O)[C@H](Cc2ccc(Cl)cc2)NC(=O)C(C)(C)NC(C)=O)CSSC[C@@H](C(=O)N[C@H](C(=O)NCCNC(=O)CN2CCN(CC(=O)O)CCN(CC(=O)O)CCN(CC(=O)O)CC2)C(C)(C)C)NC(=O)[C@H](CC(N)=O)NC(=O)C(C)(C)NC(=O)[C@H](CCCNC(=N)N)NC1=O [PSM-0472] (Ac-[Aib][Phe(4-Cl)]C[Lys(Me)]R[Aib]NC[Tle]-{Ethylenediamine-DOTA}; disulfide 3-8) and report it.
*A* < 200 nM

*Q* Retrieve IC50 measured for CC(=O)N[C@H](C(=O)NC(C)(C)C(=O)N[C@@H](Cc1ccccc1)C(=O)N[C@H]1CSSC[C@@H](C(=O)N[C@H](C(=O)N[C@@H](Cc2ccccc2)C(N)=O)C(C)(C)C)NC(=O)[C@H](CC(N)=O)NC(=O)C(C)(C)NC(=O)[C@H](CCCNC(=N)N)NC(=O)[C@H](CCCCN)NC1=O)[C@@H](C)O [PSM-0556] (Ac-T[Aib]FCKR[Aib]NC[Tle]F-NH2; disulfide 4-9) and print it.
*A* < 200 nM

*Q* Using known records, supply IC50 for C[C@@H](O)[C@H](NC(=O)[C@@H](NC(=O)[C@@H]1CSSC[C@H](NC(=O)[C@H](Cc2cccc(Cl)c2)NC(=O)C(C)(C)NC(=O)[C@@H](NC(=O)CC2CCN(C(=O)CN3CCN(CC(=O)O)CCN(CC(=O)O)CCN(CC(=O)O)CC3)CC2)[C@@H](C)O)C(=O)N[C@@H](CCCCN)C(=O)N[C@@H](CCCNC(N)=O)C(=O)NC(C)(C)C(=O)N[C@@H](CC(N)=O)C(=O)N1)C(C)(C)C)C(N)=O [PSM-0431] ({DOTA}-[X1]T[Aib][Phe(3-Cl)]CK[Cit][Aib]NC[Tle]T-NH2; disulfide 5-10)
*A* 200 to 1260 nM
